# system_under_test: Neu5Gc(a2-3)Gal(b1-4)GlcNAc
# measurement_protocol: glycan array binding signal (z-score within array); higher = stronger binding
# assay_setup: glycan notation: IUPAC condensed, linker removed
This is one part of a sample in which the strongest signals are shown more often than they occur.
Would you kindly list glycan array binding signal (z-score) for each of these binders?
Format: numeric value only, no unit, no commentary.

Look at this binder and give its reported glycan array binding signal (z-score). Si Bti9 1b-HA (Solanum lycopersicum) (protein) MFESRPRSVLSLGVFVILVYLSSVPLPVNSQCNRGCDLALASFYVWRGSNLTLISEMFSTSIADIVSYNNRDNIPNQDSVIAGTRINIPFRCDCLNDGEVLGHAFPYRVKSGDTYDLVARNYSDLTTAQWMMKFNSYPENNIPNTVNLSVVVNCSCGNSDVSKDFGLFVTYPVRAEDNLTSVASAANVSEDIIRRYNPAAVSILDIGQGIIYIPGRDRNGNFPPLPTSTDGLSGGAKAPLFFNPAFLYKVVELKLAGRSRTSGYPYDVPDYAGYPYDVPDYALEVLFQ
-0.219

Look at this binder and give its reported glycan array binding signal (z-score). Gal 7 (Canis lupus) (protein) MAGSSNVPHKTSLPEGIRVGTVMRIRGVVPNKAGRFYVNLLCGEAPGSEAALHFNPRLDESTVVFNTLEQGAWGREERGTGIPFQRGQPFDVLLIATDEGFKAVVGDSEYHHFRYRIPPARVRLLEVGGDLQLESVSVF
-0.217

Look at this binder and give its reported glycan array binding signal (z-score). LCA (Lens culinaris), P02870 (protein) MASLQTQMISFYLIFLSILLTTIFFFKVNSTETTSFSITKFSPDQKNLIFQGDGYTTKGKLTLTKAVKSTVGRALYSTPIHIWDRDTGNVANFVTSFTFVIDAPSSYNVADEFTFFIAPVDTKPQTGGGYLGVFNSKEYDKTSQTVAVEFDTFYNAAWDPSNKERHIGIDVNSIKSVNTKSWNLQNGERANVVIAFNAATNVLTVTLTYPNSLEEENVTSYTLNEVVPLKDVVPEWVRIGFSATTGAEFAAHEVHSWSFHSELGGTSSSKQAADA
-0.219

Look at this binder and give its reported glycan array binding signal (z-score). TbCVNHOa (Tuber borchii), Q5MK11 (protein) GSHIGPYMSYADSSRNAVLTNGGRTLRAECRNADGNWVTSELDLDTCIGNPNGFLGWGMQNFSHSSEDIKLEEGGRKLTCRPKTVDGGFRERQGIDLNRIQNVNGRLVFQ
-0.209

Each recorded value in this set is attributed to the supplement of paper PMC8728848.
